procedureDetails: in vitro
settings: rat
I'd be grateful if you could share measured Papp at 1 h, 2 mg/mL for these entries.
All answers are understood in ×10⁻⁶ cm/s, so give the number only.

Prompt line: Recorded Papp at 1 h, 2 mg/mL of CC1=C(C)C(=O)O[C@@H]([C@](C)(O)[C@H]2CC[C@H]3[C@@H]4[C@@H]5O[C@@H]5[C@@]5(O)CC=CC(=O)[C@]5(C)[C@H]4CC[C@]23C)C1 [Withanolide A] , please.
Response line: 0.0665

Prompt line: # query: Papp at 1 h, 2 mg/mL of entry CC1=C(C)C(=O)O[C@@H]([C@@H](C)[C@H]2CC[C@H]3[C@@H]4CC=C5C[C@@H](O[C@@H]6O[C@H](CO[C@@H]7O[C@H](CO)[C@@H](O)[C@H](O)[C@H]7O)[C@@H](O)[C@H](O)[C@H]6O)C[C@H](O)[C@]5(C)[C@H]4CC[C@]23C)C1 [Withanoside V]
Response line: 0.0343

Prompt line: Recorded Papp at 1 h, 2 mg/mL of `CC1=C(C)C(=O)O[C@@H]([C@@H](C)[C@@]2(O)CC[C@H]3[C@@H]4[C@@H]5O[C@@H]5[C@@]5(O)CC=CC(=O)[C@]5(C)[C@H]4CC[C@@]32C)C1` , please.
Response line: 0.0317

###

procedureDetails: Stability of analytes in rat plasma
settings: rat plasma, 25 °C for 4 h, high QC (nominal 200.50-201.50 ng/mL), n = 6
Give Bench top Stability (% ± SD) for every item shown.
Give the number; % is assumed, so skip it.

Prompt line: Any idea what Bench top Stability (% ± SD) was measured for CC1=C(C)C(=O)O[C@@H]([C@@H](C)[C@H]2CC[C@H]3[C@@H]4[C@@H]5O[C@@H]5[C@@]5(O)CC=CC(=O)[C@]5(C)[C@H]4CC[C@]23C)C1 [Withanolide B] ?
Response line: 96.83

Prompt line: Look up Bench top Stability (% ± SD) for this compound: `CC1=C(CO)C(=O)O[C@@H]([C@@H](C)[C@H]2CC[C@H]3[C@@H]4C[C@H]5O[C@]56[C@@H](O)C=CC(=O)[C@]6(C)[C@H]4CC[C@]23C)C1`
Response line: 94.72

Prompt line: Which Bench top Stability (% ± SD) is listed for CC1=C(CO)C(=O)O[C@@H]([C@@H](C)[C@H]2CC[C@H]3[C@@H]4CC=C5C[C@@H](O[C@@H]6O[C@H](CO[C@@H]7O[C@H](CO)[C@@H](O)[C@H](O)[C@H]7O)[C@@H](O)[C@H](O)[C@H]6O)C[C@H](O)[C@]5(C)[C@H]4CC[C@]23C)C1 [Withanoside IV] ?
Response line: 100.34

Prompt line: Need Bench top Stability (% ± SD) of CC1=C(C)C(=O)O[C@@H]([C@](C)(O)[C@H]2CC[C@H]3[C@@H]4[C@@H]5O[C@@H]5[C@@]5(O)CC=CC(=O)[C@]5(C)[C@H]4CC[C@]23C)C1 [Withanolide A] , thanks.
Response line: 103.63

###

procedureDetails: In vivo pharmacokinetic study after oral WSE
settings: male, Sprague Dawley, rat, plasma, po, 500 mg/kg
measuredQuantity: Cmax

Prompt line: # get_value(readout='Cmax', item= `CC1=C(CO)C(=O)O[C@@H]([C@@H](C)[C@H]2CC[C@H]3[C@@H]4C[C@H]5O[C@]56[C@@H](O)C=CC(=O)[C@]6(C)[C@H]4CC[C@]23C)C1` )
Response line: 124 ng/mL

###

procedureDetails: Stability of analytes in rat plasma
settings: rat plasma, low QC (nominal 10.05-10.50 ng/mL), n = 6
measuredQuantity: Autosampler stability (% ± SD) (%)
Just the number in %, nothing appended.

Prompt line: I am curious: what Autosampler stability (% ± SD) value has been reported for `CC1=C(C)C(=O)O[C@@H]([C@@H](C)[C@@]2(O)CC[C@H]3[C@@H]4[C@@H]5O[C@@H]5[C@@]5(O)CC=CC(=O)[C@]5(C)[C@H]4CC[C@@]32C)C1` ?
Response line: 109.47

Prompt line: Returns the measured Autosampler stability (% ± SD) for the input molecule. Input: CC1=C(CO)C(=O)OC(C(C)C2CCC3C4C5OC5C5(O)CC=CC(=O)C5(C)C4CCC23C)C1 (stereo not drawn) [12-Deoxy-withastramonolide]
Response line: 101.72

Prompt line: If you can, please state the reported Autosampler stability (% ± SD) value of `CC1=C(CO)C(=O)O[C@@H]([C@@H](C)[C@H]2CC[C@H]3[C@@H]4C[C@H]5O[C@]56[C@@H](O)C=CC(=O)[C@]6(C)[C@H]4CC[C@]23C)C1` .
Response line: 103.09

###

procedureDetails: in vitro
settings: rat
measuredQuantity: Papp at 1 h, 2 mg/mL (×10⁻⁶ cm/s)
Give the value, in units of ×10⁻⁶ cm/s, as a plain number.

Prompt line: Bench note: what Papp at 1 h, 2 mg/mL did CC1=C(CO)C(=O)O[C@@H]([C@@H](C)[C@H]2CC[C@H]3[C@@H]4CC=C5C[C@@H](O[C@@H]6O[C@H](CO[C@@H]7O[C@H](CO)[C@@H](O)[C@H](O)[C@H]7O)[C@@H](O)[C@H](O)[C@H]6O)C[C@H](O)[C@]5(C)[C@H]4CC[C@]23C)C1 [Withanoside IV] show?
Response line: 0.142

Prompt line: // returns reported Papp at 1 h, 2 mg/mL for input CC1=C(CO)C(=O)OC(C(C)C2CCC3C4C5OC5C5(O)CC=CC(=O)C5(C)C4CCC23C)C1 (stereo not drawn) [12-Deoxy-withastramonolide]
Response line: 0.122

Prompt line: Find the recorded Papp at 1 h, 2 mg/mL belonging to CC1=C(C)C(=O)O[C@@H]([C@@H](C)[C@H]2CC[C@H]3[C@@H]4[C@@H]5O[C@@H]5[C@@]5(O)CC=CC(=O)[C@]5(C)[C@H]4CC[C@]23C)C1 [Withanolide B] and report it.
Response line: 0.0131

###

procedureDetails: in vivo
settings: male, Sprague Dawley, rat, in vivo, po, 500 mg/kg
Answer each item with its documented Cmax.
Value and unit, in that order.

Prompt line: // query Cmax value for entry CC1=C(CO)C(=O)O[C@@H]([C@@H](C)[C@H]2CC[C@H]3[C@@H]4CC=C5C[C@@H](O[C@@H]6O[C@H](CO[C@@H]7O[C@H](CO)[C@@H](O)[C@H](O)[C@H]7O)[C@@H](O)[C@H](O)[C@H]6O)C[C@H](O)[C@]5(C)[C@H]4CC[C@]23C)C1 [Withanoside IV]
Response line: 0.0138 µg/mL

Prompt line: Which Cmax is reported for this compound? CC1=C(C)C(=O)O[C@@H]([C@](C)(O)[C@H]2CC[C@H]3[C@@H]4[C@@H]5O[C@@H]5[C@@]5(O)CC=CC(=O)[C@]5(C)[C@H]4CC[C@]23C)C1 [Withanolide A]
Response line: 0.00728 µg/mL

Prompt line: Could you share which Cmax value was measured for CC1=C(CO)C(=O)OC(C(C)C2CCC3C4C5OC5C5(O)CC=CC(=O)C5(C)C4CCC23C)C1 (stereo not drawn) [12-Deoxy-withastramonolide] ?
Response line: 0.0575 µg/mL

###

Hi there, I'd appreciate the recorded half-life for every entry that follows.
procedureDetails: in vivo
settings: male, Sprague Dawley, rat, in vivo, po, 500 mg/kg
Express your answer in h, writing the number without its unit.

Prompt line: Which half-life is reported for this molecule? CC1=C(CO)C(=O)O[C@@H]([C@@H](C)[C@H]2CC[C@H]3[C@@H]4CC=C5C[C@@H](O[C@@H]6O[C@H](CO[C@@H]7O[C@H](CO)[C@@H](O)[C@H](O)[C@H]7O)[C@@H](O)[C@H](O)[C@H]6O)C[C@H](O)[C@]5(C)[C@H]4CC[C@]23C)C1 [Withanoside IV]
Response line: 1.1

Prompt line: Reported half-life for CC1=C(CO)C(=O)OC(C(C)C2CCC3C4C5OC5C5(O)CC=CC(=O)C5(C)C4CCC23C)C1 (stereo not drawn) [12-Deoxy-withastramonolide] : what is it?
Response line: 1.73

Prompt line: Return reported half-life; argument: CC1=C(C)C(=O)O[C@@H]([C@](C)(O)[C@H]2CC[C@H]3[C@@H]4[C@@H]5O[C@@H]5[C@@]5(O)CC=CC(=O)[C@]5(C)[C@H]4CC[C@]23C)C1 [Withanolide A]
Response line: 0.728

###

procedureDetails: in vivo
settings: male, Sprague Dawley, rat, in vivo, po, 500 mg/kg
Please go through the items and note down their MRT inf.
// units = h; emit number, no label

Prompt line: Reported MRT inf for CC1=C(C)C(=O)O[C@@H]([C@](C)(O)[C@H]2CC[C@H]3[C@@H]4[C@@H]5O[C@@H]5[C@@]5(O)CC=CC(=O)[C@]5(C)[C@H]4CC[C@]23C)C1 [Withanolide A] : what is it?
Response line: 1.25

Prompt line: Value lookup for MRT inf; key = CC1=C(CO)C(=O)OC(C(C)C2CCC3C4C5OC5C5(O)CC=CC(=O)C5(C)C4CCC23C)C1 (stereo not drawn) [12-Deoxy-withastramonolide]
Response line: 2.34

Prompt line: I would be grateful if you could share the reported MRT inf for CC1=C(CO)C(=O)O[C@@H]([C@@H](C)[C@H]2CC[C@H]3[C@@H]4CC=C5C[C@@H](O[C@@H]6O[C@H](CO[C@@H]7O[C@H](CO)[C@@H](O)[C@H](O)[C@H]7O)[C@@H](O)[C@H](O)[C@H]6O)C[C@H](O)[C@]5(C)[C@H]4CC[C@]23C)C1 [Withanoside IV] .
Response line: 2.08
